# RUN_DESCRIPTION: Pharmacokinetic properties in rats
# Assay type: in vivo
# ASSAY_CONTEXT: rat, plasma, Intravenous (1 mg/kg)
QUANTITY_KIND: AUC (ng·h/mL)
Express it in ng·h/mL; write the number only.

Identify measured AUC corresponding to COc1cc2cc(C(F)(F)CCC(=O)O)sc2cc1OC [Compound S2]
7180

---

# RUN_DESCRIPTION: Pharmacokinetic properties in rats
# Type: in vivo
# ASSAY_CONTEXT: rat, plasma, Oral (3 mg/kg)
QUANTITY_KIND: MRT (h)
Express it in h; write the number only.

Identify measured MRT corresponding to COc1cc2cc(C(F)(F)CCC(=O)O)sc2cc1OC [Compound S2]
1.15
